- Tested on: RAW264.7
- ASSAY_EXPLANATION: Anti-inflammatory activity in mouse RAW264.7 cells assessed as inhibition of LPS-induced TNFalpha release preincubated for 1 hr followed by LPS stimulation measured after 24 hrs by ELISA
- Format: functional, cell-based
MEASUREMENT_KIND: IC50
Could you kindly put the unit after your number?

Input COc1ccc(-c2coc3cc(OCC(=O)N4N=C(c5cc6ccccc6oc5=O)CC4c4ccc(C(F)(F)F)cc4)ccc3c2=O)cc1 (stereo unspecified) , output reported IC50. 16.8 µM

###

- Test system: Rattus norvegicus
- ASSAY_EXPLANATION: Anti-inflammatory activity in Sprague-Dawley rat assessed as inhibition of carrageenan-induced paw edema at 10 mg/kg, po administered 30 mins prior to carrageenan challenge measured after 5 hrs relative to control
- Assay type: functional
Mark met for reported inhibition in vivo at 10 mg/kg of 40% or greater; mark not met for anything smaller.

| MOLECULE | SYSTEM_NAME | ASSIGNED_CATEGORY |
| --- | --- | --- |
| Cc1ccc(-c2cc(C(F)(F)F)nn2-c2ccc(S(N)(=O)=O)cc2)cc1 | Rattus norvegicus | met |
| O=C(CN1CCCCC1)N1N=C(c2cc3ccccc3oc2=O)CC1c1ccc(C(F)(F)F)cc1 (stereo unspecified) | Rattus norvegicus | not met |
| C=CCN(CC=C)CC(=O)N1N=C(c2cc3ccccc3oc2=O)CC1c1ccccc1C(F)(F)F (stereo unspecified) | Rattus norvegicus | met |

State whether the measured inhibition in vivo at 10 mg/kg reaches 40%, counting equality as reaching it, for COc1ccc(-c2coc3cc(OCC(=O)N4N=C(c5cc6ccccc6oc5=O)CC4c4ccc(C(F)(F)F)cc4)ccc3c2=O)cc1 (stereo unspecified) met

I'd appreciate it if you could say whether CC(C)NCC(=O)N1N=C(c2cc3ccccc3oc2=O)CC1c1ccccc1C(F)(F)F (stereo unspecified) has inhibition in vivo at 10 mg/kg at least equal to 40%. not met

Check the entry O=C(O)Cc1ccccc1Nc1c(Cl)cccc1Cl : does inhibition in vivo at 10 mg/kg equal or exceed 40%? met

The origin of these recorded values is ChEMBL document CHEMBL4190236.
